Test system: velvetleaf
Assay: Test B pre-/postemergence herbicide test
Type: in vivo, Abutilon theophrasti
Details: postemergence, 500 g ai/ha; scale 0 to 100, 0 is no effect, 100 is complete control
The threshold is inclusive: Velvetleaf plant response rating of exactly 20 counts as Criterion met; values below receive Criterion not met.

[in] Identify whether the reported Velvetleaf plant response rating of the following molecule is 20 or greater: CCn1nc(C(C)(C)C)cc1C(=O)Nc1ccnc(C(=O)N(C)C)c1 [Compound 256]
[out] Criterion met

[in] Identify whether the reported Velvetleaf plant response rating of the following molecule is 20 or greater: CC(=NO)c1cccc(NC(=O)c2cc(C(C)(C)C)n[nH]2)c1 [Compound 311]
[out] Criterion not met

[in] Identify whether the reported Velvetleaf plant response rating of the following molecule is 20 or greater: CCNC(=O)c1ccc(F)c(NC(=O)c2cc(C(C)(C)C)nn2CC)n1 [Compound 278]
[out] Criterion not met
